Every entry's value here was drawn from patent US20200115416A1.

target.of.assay: mouse melanocortin-3 receptor (mouse, UniProt P33033 1-323)
Sequence (P33033 whole entry): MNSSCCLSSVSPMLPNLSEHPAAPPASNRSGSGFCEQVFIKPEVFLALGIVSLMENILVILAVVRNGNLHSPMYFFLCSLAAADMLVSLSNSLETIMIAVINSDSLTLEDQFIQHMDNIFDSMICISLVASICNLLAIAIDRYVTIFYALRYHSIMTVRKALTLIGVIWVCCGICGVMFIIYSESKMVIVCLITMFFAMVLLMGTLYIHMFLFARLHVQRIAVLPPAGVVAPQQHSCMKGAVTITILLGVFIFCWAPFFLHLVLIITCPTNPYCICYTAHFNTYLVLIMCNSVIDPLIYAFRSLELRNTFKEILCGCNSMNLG
method.summary: cell-based or functional assay
Square brackets hold non-standard residues; d marks the D form.
endpoint.name: antagonist pA2 (Schild, agonist NDP-MSH)

1) PRFFXAFP (head-to-tail cyclic; Dap at 5; DPro at 8) [c[Pro-Arg-Phe-Phe-Dap-Ala-Phe-DPro]]: 6.52
2) cyclo(PRFFTAF[dP]) (SMILES C[C@@H]1NC(=O)[C@H]([C@@H](C)O)NC(=O)[C@H](Cc2ccccc2)NC(=O)[C@H](Cc2ccccc2)NC(=O)[C@H](CCCNC(=N)N)NC(=O)[C@@H]2CCCN2C(=O)[C@H]2CCCN2C(=O)[C@H](Cc2ccccc2)NC1=O) [c[Pro-Arg-Phe-Phe-Thr-Ala-Phe-DPro]]: 6.4
3) cyclo(PRFFNFF[dP]) (SMILES N=C(N)NCCC[C@@H]1NC(=O)[C@@H]2CCCN2C(=O)[C@H]2CCCN2C(=O)[C@H](Cc2ccccc2)NC(=O)[C@H](Cc2ccccc2)NC(=O)[C@H](CC(N)=O)NC(=O)[C@H](Cc2ccccc2)NC(=O)[C@H](Cc2ccccc2)NC1=O) [c[Pro-Arg-Phe-Phe-Asn-Phe-Phe-DPro]]: 5.72
4) cyclo(PRFFLAF[dP]) (SMILES CC(C)C[C@@H]1NC(=O)[C@H](Cc2ccccc2)NC(=O)[C@H](Cc2ccccc2)NC(=O)[C@H](CCCNC(=N)N)NC(=O)[C@@H]2CCCN2C(=O)[C@H]2CCCN2C(=O)[C@H](Cc2ccccc2)NC(=O)[C@H](C)NC1=O) [c[Pro-Arg-Phe-Phe-Leu-Ala-Phe-DPro]]: 5.7
